Cited source for all entries: PubChem BioAssay AID540308

Hi there, I'd appreciate the recorded activation for every entry that follows.
Biological target: Melanocortin receptor 4 (Homo sapiens)
Assay: activators of MC4R beta-arrestin recruitment – cell-based, luminescence, agonist arm of biased-ligand search, primary screen (AID 540308)
Settings: U2OS MC4R beta-arrestin complementation, at 8.9 µM, hits give high values, percent of melanotan II response, DMSO zero
Among all 360,000 compounds or so, about 3,500 (0.97%) were called active. Only a selection was taken, and actives are over-represented in it overall.
Write the number in % without appending the unit.

Problem: Which measured activation value corresponds to Cc1ccc(NC(=S)NC(=O)c2ccc(-c3ccccc3)cc2)cc1 ?
Solution: 8.85

Problem: Fill blank: measured activation of the compound O=C(Nc1cccc(Cc2ccccc2)c1)Nc1ccc2nc([C@@H]3O[C@H](CO)[C@@H](O)[C@H](O)[C@H]3O)[nH]c2c1 is ____.
Solution: -0.22

Problem: Could you share which activation value was measured for COc1ccc(CC(N)c2csc(NC(=O)NC(c3ccccc3)c3ccccc3)n2)cc1 (configuration not stated) ?
Solution: 13.1

Problem: What value of activation has been reported for the following compound? Cc1nc2c(OCC(=O)C(C)(C)C)cccn2c1N(C)Cc1cccs1
Solution: -0.1

Problem: What measured activation goes with CSc1ncccc1C(=O)Nc1nc2ccc(F)cc2s1 ?
Solution: -1.02

Problem: Which activation value belongs to O=C(Cc1ccc(-c2ccccc2)cc1)NC(c1ccccc1)c1ccccc1 ?
Solution: 9.56

Problem: Which activation value belongs to C=CCC(NC(=O)Cc1ccccc1)C(=O)NCCC (configuration not stated) ?
Solution: -0.94

Problem: Form field: reported activation of CC1=C(C/C=C(\C)CCCC(C)CCCC(C)CCCC(C)C)C(=O)c2ccccc2C1=O (configuration not stated)
Solution: -1.56

Problem: Recorded activation for CC(C)(C)CC(=O)Nc1nc(C(N)Cc2ccc(C(F)(F)F)cc2)cs1 (configuration not stated) , please?
Solution: 9.49

Problem: Name the recorded activation for COc1ccc(/C=N/NC(=O)Nc2ccc3nsnc3c2)c(OC)c1 .
Solution: 13.5

Problem: Please report the recorded activation for COc1ccc(CC(N)c2csc(NC(=O)Cc3ccccc3)n2)cc1 (configuration not stated) .
Solution: -0.85

Problem: What activation value was documented for this compound, NC(Cc1ccc(F)cc1)c1csc(Nc2nncc3ccccc23)n1 (configuration not stated) ?
Solution: 6.94

Problem: So what does the record say about activation for COC(=O)c1cc(S(=O)(=O)N2CCN(c3cc(C)ccc3C)CC2)c[nH]1 ?
Solution: 9.07

Problem: Consider the compound shown here: COc1ccc(C(N)c2csc(NC(=O)Nc3cccc(C(F)(F)F)c3)n2)cc1 (configuration not stated) What is its recorded activation?
Solution: 9.99

Problem: Entry COc1ccc(S(=O)(=O)NNC(=O)Nc2ccc(C)cc2)c(OC)c1 : reported activation = ?
Solution: 0.62

Problem: Which measured activation value corresponds to Oc1c(Cl)cc(Cl)c(Cl)c1Cc1c(O)c(Cl)cc(Cl)c1Cl ?
Solution: 9.22

Problem: Which activation is listed for NC(Cc1ccccc1)c1csc(Nc2cc(Oc3ccccc3)ncn2)n1 (configuration not stated) ?
Solution: 4.18

Problem: # lookup: activation of CC(=O)NC(c1ccccc1)c1nc(-c2ccccc2C)cs1 (configuration not stated)
Solution: 0.3

Problem: Which activation value belongs to O=C(CN1CCN(Cc2ccccc2)CC1)NC(c1ccccc1)c1ccccc1 ?
Solution: 1.85

Problem: Which measured activation value corresponds to CCc1nc2c(OCc3ccccc3)cccn2c1N(C)C(=O)c1ccco1 ?
Solution: -0.58

Problem: Given CCCc1ccc(C(O)c2ncc(-c3cccc(OC)c3)[nH]2)cc1 (configuration not stated) , state its recorded activation.
Solution: -1.27

Problem: Can you share its activation? I mean this compound: CC1(C(=O)NCc2ccco2)Cc2c(-c3ccc4c(c3)OCO4)ccnc2O1 (configuration not stated)
Solution: 0.01
